organism: Rattus norvegicus; test: Open TG-GATES - Regimen: Daily Repeat; format: toxicity, organism-based, Sprague-Dawley; design: regimen Daily Repeat, gender Male, age 6 weeks; conditions: in vivo, po, 0 mg/kg, […], tissue Blood, route gavage, dose level Control, time 28 day
Reported WBC values follow for various compounds
measured-attribute: WBC (x10_2/uL)

structure | unit-abbreviation | endpoint-value
C[C@H](CS)C(=O)N1CCC[C@H]1C(=O)O | x10_2/uL | 154.2
O=C(O)c1cc(/N=N/c2ccc(S(=O)(=O)Nc3ccccn3)cc2)ccc1O | x10_2/uL | 97.9
Cn1c(=O)c2[nH]cnc2n(C)c1=O.O | x10_2/uL | 113.3

---

species: Rattus norvegicus; test: Open TG-GATES - Regimen: Single; type: toxicity, organism-based, Sprague-Dawley; design: regimen Single, gender Male, age 6 weeks; conditions: in vivo, po, 300 mg/kg, 24 h, tissue Plasma, route gavage, dose level Middle
Reported ALT values follow for various compounds

compound | ALT
O=C(O)c1cc(/N=N/c2ccc(S(=O)(=O)Nc3ccccn3)cc2)ccc1O | 40 IU/L
O=C(O)c1cn(C2CC2)c2cc(N3CCNCC3)c(F)cc2c1=O | 37.8 IU/L
C[C@H](CS)C(=O)N1CCC[C@H]1C(=O)O | 37.6 IU/L
Clc1ccccc1CN1CCc2sccc2C1 | 35.2 IU/L
CCc1cc(C(N)=S)ccn1 [ETHIONAMIDE] | 50.4 IU/L

---

species on record: Rattus norvegicus; assay: Open TG-GATES - Regimen: Single; format: toxicity, organism-based, Sprague-Dawley; parameters: regimen Single, gender Male, age 6 weeks; details: in vivo, po, 100 mg/kg, 6 h, tissue Kidney, route gavage, dose level Low

compound | KIDNEY_R
C[C@H](CS)C(=O)N1CCC[C@H]1C(=O)O [CAPTOPRIL] | 1.1 g
O=C(O)c1cc(/N=N/c2ccc(S(=O)(=O)Nc3ccccn3)cc2)ccc1O [SULFASALAZINE] | 1 g
O=C(O)c1cn(C2CC2)c2cc(N3CCNCC3)c(F)cc2c1=O [CIPROFLOXACIN] | 0.9 g
CCc1cc(C(N)=S)ccn1 [ETHIONAMIDE] | 1 g
Clc1ccccc1CN1CCc2sccc2C1 [TICLOPIDINE] | 0.9 g

---

species on record: Rattus norvegicus; experiment: Open TG-GATES - Regimen: Single; assay type: toxicity, organism-based, Sprague-Dawley; set-up: regimen Single, gender Male, age 6 weeks; details: in vivo, po, 100 mg/kg, 3 h, tissue Kidney, route gavage, dose level Low

compound | unit-abbreviation | KIDNEY_R
O=C(O)c1cc(/N=N/c2ccc(S(=O)(=O)Nc3ccccn3)cc2)ccc1O | g | 0.9
Clc1ccccc1CN1CCc2sccc2C1 | g | 1
CCc1cc(C(N)=S)ccn1 [ETHIONAMIDE] | g | 1
O=C(O)c1cn(C2CC2)c2cc(N3CCNCC3)c(F)cc2c1=O | g | 0.9
C[C@H](CS)C(=O)N1CCC[C@H]1C(=O)O | g | 1

---

Reported CRE values follow for various compounds
species: Rattus norvegicus; assay: Open TG-GATES - Regimen: Single; assay type: toxicity, organism-based, Sprague-Dawley; design: regimen Single, gender Male, age 6 weeks; conditions: in vivo, po, 1000 mg/kg, 6 h, tissue Plasma, route gavage, dose level High

compound | CRE [mg/dL]
O=C(O)c1cn(C2CC2)c2cc(N3CCNCC3)c(F)cc2c1=O | 0.5
O=C(O)c1cc(/N=N/c2ccc(S(=O)(=O)Nc3ccccn3)cc2)ccc1O | 0.4
C[C@H](CS)C(=O)N1CCC[C@H]1C(=O)O | 0.6
CCc1cc(C(N)=S)ccn1 [ETHIONAMIDE] | 0.5
Clc1ccccc1CN1CCc2sccc2C1 | 0.4

---

Reported LDH values follow for various compounds
species: Rattus norvegicus; experiment: Open TG-GATES - Regimen: Single; format: toxicity, organism-based, Sprague-Dawley; parameters: regimen Single, gender Male, age 6 weeks; settings: in vivo, po, 300 mg/kg, 6 h, tissue Plasma, route gavage, dose level Middle

compound | LDH
O=C(O)c1cn(C2CC2)c2cc(N3CCNCC3)c(F)cc2c1=O | 82.2 IU/L
CCc1cc(C(N)=S)ccn1 [ETHIONAMIDE] | 135.2 IU/L
Clc1ccccc1CN1CCc2sccc2C1 | 213 IU/L
C[C@H](CS)C(=O)N1CCC[C@H]1C(=O)O | 92.4 IU/L
O=C(O)c1cc(/N=N/c2ccc(S(=O)(=O)Nc3ccccn3)cc2)ccc1O | 191.4 IU/L

---

organism: Rattus norvegicus; assay: Open TG-GATES - Regimen: Daily Repeat; type: toxicity, organism-based, Sprague-Dawley; set-up: regimen Daily Repeat, gender Male, age 6 weeks; details: in vivo, po, 0 mg/kg, […], tissue Plasma, route gavage, dose level Control, time 28 day
Reported AST values follow for various molecules

molecule | AST
NC(=O)N/N=C/c1ccc([N+](=O)[O-])o1 [NITROFURAZONE] | 62.4 IU/L
CSc1ccc2c(c1)N(CCC1CCCCN1C)c1ccccc1S2 (stereo not drawn) [THIORIDAZINE] | 62 IU/L
O=C(O)c1cn(C2CC2)c2cc(N3CCNCC3)c(F)cc2c1=O [CIPROFLOXACIN] | 57.6 IU/L
C[C@H](CS)C(=O)N1CCC[C@H]1C(=O)O [CAPTOPRIL] | 58 IU/L
COc1ccc2c(c1)c(CC(=O)O)c(C)n2C(=O)c1ccc(Cl)cc1 [INDOMETHACIN] | 56.2 IU/L
CN(C)CCC=C1c2ccccc2CCc2ccccc21 [AMITRIPTYLINE] | 83 IU/L
CO[C@H]1/C=C/O[C@@]2(C)Oc3c(C)c(O)c4c(O)c(c(/C=N/N5CCN(C)CC5)c(O)c4c3C2=O)NC(=O)/C(C)=C\C=C\[C@H](C)[C@H](O)[C@@H](C)[C@@H](O)[C@@H](C)[C@H](OC(C)=O)[C@@H]1C [RIFAMPIN] | 56.4 IU/L
CCc1cc(C(N)=S)ccn1 [ETHIONAMIDE] | 55.6 IU/L

---

Reported BUN values follow for various molecules
species: Rattus norvegicus; test: Open TG-GATES - Regimen: Single; assay type: toxicity, organism-based, Sprague-Dawley; parameters: regimen Single, gender Male, age 6 weeks; conditions: in vivo, po, 100 mg/kg, 24 h, tissue Plasma, route gavage, dose level Low

molecule | BUN
CCc1cc(C(N)=S)ccn1 [ETHIONAMIDE] | 16.4 mg/dL
C[C@H](CS)C(=O)N1CCC[C@H]1C(=O)O [CAPTOPRIL] | 15.8 mg/dL
O=C(O)c1cc(/N=N/c2ccc(S(=O)(=O)Nc3ccccn3)cc2)ccc1O [SULFASALAZINE] | 15.2 mg/dL
O=C(O)c1cn(C2CC2)c2cc(N3CCNCC3)c(F)cc2c1=O [CIPROFLOXACIN] | 17.2 mg/dL

---

species on record: Rattus norvegicus; assay: Open TG-GATES - Regimen: Daily Repeat; assay type: toxicity, organism-based, Sprague-Dawley; design: regimen Daily Repeat, gender Male, age 6 weeks; conditions: in vivo, po, 0 mg/kg, […], tissue Plasma, route gavage, dose level Control, time 28 day

compound | Cl / meq/L
CN(C)CCC=C1c2ccccc2CCc2ccccc21 [AMITRIPTYLINE] | 104.8
COc1ccc(Cc2nccc3cc(OC)c(OC)cc23)cc1OC [PAPAVERINE] | 105
CC(=O)Oc1ccccc1C(=O)O [ASPIRIN] | 103.2
NC(=O)N/N=C/c1ccc([N+](=O)[O-])o1 [NITROFURAZONE] | 104
COc1ccc2c(c1)c(CC(=O)O)c(C)n2C(=O)c1ccc(Cl)cc1 [INDOMETHACIN] | 105.2
O=C(O)c1cc(/N=N/c2ccc(S(=O)(=O)Nc3ccccn3)cc2)ccc1O [SULFASALAZINE] | 103.6
CCc1cc(C(N)=S)ccn1 [ETHIONAMIDE] | 104.4
NC(=O)N1c2ccccc2C=Cc2ccccc21 [CARBAMAZEPINE] | 102
Cn1c(=O)c2[nH]cnc2n(C)c1=O.O [THEOPHYLLINE] | 106.4

---

organism: Rattus norvegicus; experiment: Open TG-GATES - Regimen: Daily Repeat; format: toxicity, organism-based, Sprague-Dawley; parameters: regimen Daily Repeat, gender Male, age 6 weeks; conditions: in vivo, po, 0 mg/kg, 72 h, tissue Blood, route gavage, dose level Control, time 3 day
measured-attribute: Eos (%)

compound | unit-abbreviation | endpoint-value
CC(=O)Oc1ccccc1C(=O)O | % | 1
COc1ccc(Cc2nccc3cc(OC)c(OC)cc23)cc1OC | % | 1
C[C@H](CS)C(=O)N1CCC[C@H]1C(=O)O | % | 1.2
CCc1cc(C(N)=S)ccn1 [ETHIONAMIDE] | % | 1
O=C(O)c1cn(C2CC2)c2cc(N3CCNCC3)c(F)cc2c1=O | % | 1.2
NC(=O)N1c2ccccc2C=Cc2ccccc21 [CARBAMAZEPINE] | % | 1
